- target-desc: Histone-lysine N-methyltransferase EHMT2 (Homo sapiens)
- assay-overview: qHTS Assay for Inhibitors of Histone Lysine Methyltransferase G9a; further: nearly all actives have a fitted effect of over 75% in size
- measurement-context: G9a H3K9 monomethylation, AlphaScreen, 2 h; series mostly up to 59 µM
The whole screen tested about 350,000 compounds, of which about 31,000 (8.9%) were called active. Inconclusive results (about 15%) are left out. The call rests on the fitted dose curve; in most records, active means well fitted inhibition curve with a large enough effect; inconclusive means small, poorly fitted or top-dose-only effect; inactive means no such curve, though single readings can be large or run the other way. This is one part of a sample in which actives are shown more often than they occur.
Output constraint: value belongs to active, inactive

Solved entries (count: 4):
# compound, discrete-label
measured = [
    ("O=C(NCc1ccccc1Cl)C(=O)NCC1CCCN1S(=O)(=O)c1cccs1 (stereo unspecified)", "inactive"),
    ("CC(=O)c1cccc(NC(=O)c2cc(C)nn2-c2ccccc2)c1", "inactive"),
    ("O=C(Nc1ccccc1Cl)N1CCC(CN2CCCC2)CC1", "inactive"),
    ("COc1ccccc1C(=O)Nc1ccc(C)c(S(=O)(=O)N2CCCCC2)c1", "inactive"),
]

**Query** What is the recorded call for this compound in the test? CC(=O)N1c2ccccc2N(Cc2ccc([N+](=O)[O-])cc2)C(=O)C1(C)C
**Result** inactive

**Query** Could you do the same for CC[n+]1c(C)n(-c2ccccc2)c2ccc(NC(C)=O)cc21 , please?
**Result** active
